Measured values drawn from patent US4883649A for this set.

tested-on: α2-adrenergic receptor (Homo sapiens)
Sequence (P08913 1-465): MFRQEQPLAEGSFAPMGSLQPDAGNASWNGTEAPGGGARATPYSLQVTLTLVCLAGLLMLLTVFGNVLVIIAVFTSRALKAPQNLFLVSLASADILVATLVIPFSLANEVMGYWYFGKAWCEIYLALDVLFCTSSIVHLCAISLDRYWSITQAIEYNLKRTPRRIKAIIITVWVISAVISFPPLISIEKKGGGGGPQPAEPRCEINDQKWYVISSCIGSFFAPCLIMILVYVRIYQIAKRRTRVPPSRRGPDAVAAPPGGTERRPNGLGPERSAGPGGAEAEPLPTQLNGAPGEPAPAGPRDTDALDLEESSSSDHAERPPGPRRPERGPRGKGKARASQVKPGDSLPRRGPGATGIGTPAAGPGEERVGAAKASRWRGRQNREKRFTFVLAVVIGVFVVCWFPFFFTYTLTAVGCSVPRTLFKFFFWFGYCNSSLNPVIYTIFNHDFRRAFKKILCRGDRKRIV
property-label: IC50
Mention the unit after the number when you answer.

Query :: State its IC50 on α2-adrenergic receptor (Homo sapiens): Clc1cc(I)cc(Cl)c1N=C1NCCN1 [p-Iodoclonidine]
Result :: 1.3 nM
